Reported values of protein stability index for individual entries
B1: ESRRA (parent)
chain: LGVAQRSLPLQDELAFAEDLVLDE

Variants of: B1
protocol.summary: protein stability index of a GFP-peptide fusion (GPS, HEK-293T) (PSI 1-6); higher = more stable;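 note: lentivirally expressed fusions sorted by FACS into six bins by GFP to DsRed ratio, PSI derived from sequencing read proportions per bin multiplied by bin number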
condition.notes: c terminus: a fixed tail appended
test.readout: protein stability index

A17R | 4.83
E13A | 1.75
D23Q | 1.74
G2W | 1.79
S7K | 3.13
L10W | 4.84
V3F | 2.31
E13M | 3.16
V3N | 3.1
A15S | 3.68
